Substrate: PET
Experiment: Proxy for plastic degradation [Released monomer concentration (HPLC/LC-MS) (TPA+MHET+BHET)]
Conditions: pH 9
Field: Proxy for plastic degradation. Provide a value for each of the proteins that follow.

Some proteins with known Proxy for plastic degradation results, for comparison:
Identify measured Proxy for plastic degradation associated with unnamed (protein) MKAPLFKLAAFTLGVSLSSVALATNPGGGGAGSNPDTGTGFPGVSSFSADGSFATTSGSAGLSCTVFRPSTLGANGLKHPIIVWGNGTTASPSTYSGILEHWASHGFVVIAANTSNAGTGQDMLNCVDYLTTQNNRSTGTYANKLDLNRIGAAGHSQGGGGTIMAGQDYRIKVTAPFQPYTIGAGHNSSSQSNQNGPMFLMTGSADTIASPTLNALPVYNRANVPVFWGELSGASHFEPVGSAGDFRGPSTAWFRYHLMDDASAEDTFYGSNCDLCTDNDWDVRRKGIN 820 µM

Respond only with Proxy for plastic degradation recorded for unnamed (protein) MKAPLFKLAAFTLGVSLSSVALATNPGGGGAGSNPDTGTGFPGVSSFSADGSFATTSGSAGLSCTVFRPSTLGANGLKHPIIVWGNGTTASPSTYSGILEHWASHGFVVIAANTSNAGTGQDMLNCVDYLTTQNNRSTGTYANKLDLNRIGAAGHSQGGGGTIMAGQDYRIKVTAPFQPYTIGLGHASSSQSNQNGPMFLMTGSADTIASPTLNALPVYNRANVPVFWGELSGASHFEPVGSAGDFRGPSTAWFRYHLMDDASAEDTFYGSNCDLCTDNDWDVRRKGIN 920 µM

Please list Proxy for plastic degradation recorded for the protein unnamed (protein) MKAPLFKLAAFTLGVSLSSVALATNPGGGGAGSNPDTGTGFPGVSSFSADGSFATTSGSAGLSCTVFRPSTLGANGLKHPIIVWGNGTTASPSTYSGILEHWASHGFVVIAANTSNAGTGQDMLNAVDYLTTQNNRSTGTYANKLDLNRIGAAGHSQGGGGTIMAGQDYRIKVTAPFQPYTIGLGHNSSSQSNQNGPMFLMTGSADTIASPTLNALPVYNRANVPVFWGELSGASHFEPVGSAGDFRGPSTAWFRYHLMDDASAEDTFYGSNCDLCTDNDWDVRRKGIN 250 µM

Provide Proxy for plastic degradation value for the following protein: unnamed (protein) MKAPLFKLAAFTLGVSLSSVALATNPGGGGAGSNPDTGTGFPGVSSFSADGSFATTSGSAGLSCTVFRPSTLGANGLKHPIIVWGNGTTASPSTYSGILEHWASHGFVVIAANTSNAGTGQDMLNCVDYLTTQNNRSTGTYANKLDLNRIGAAGHSQGGGGTIMAGQDYRIKVTAPFQPYTIGLGHNSSSQSNQNGPMFLMTGSADTIASPTLNALPVYNRANVPVFWGELSGASHIEPMGSAGDFRGPSTAWFRYHLMDDASAEDTFYGSNCDLCTDNDWDVRRKGIN 600 µM

# batch: return Proxy for plastic degradation for each of the 5 proteins below
1. unnamed (protein) MKAPLFKLAAFTLGVSLSSVALATNPGGGGAGSNPDTGTGFPGVSSFSADGSFATTSGSAGLSCTVFRPSTLGANGLKHPIIVWGNGTTASPSTYSGILEHWASHGFVVIAANTSNAGTGQDMLNCVDYLTTQNNRSTGTYANKLDLNRIGAAGHSMGGGGTIMAGQDYRIKVTAPFQPYTIGLGHNSSSQSNQNGPMFLMTGSADTIASPTLNALPVYNRANVPVFWGELSGASHFEPVGSAGDFRGPSTAWFRYHLMDDASAEDTFYGSNCDLCTDNDWDVRRKGIN
2. unnamed (protein) MKAPLFKLAAFTLGVSLSSVALATNPGGGGAGSNPDTGTGFPGVSSFSADGSFATTSGSAGLSCTVFRPSTLGANGLKHPIIVWGNGTTASPSTYSGILEHWASHGFVVIAANTSNAGTGQDMLNCVDYLTTQNNRSTGTYANKLDLNRIGAAGHSQGGGGTIMAGQDYRIKVTAPFQPWTIGLGHNSSSQSNQNGPMFLMTGSADTIASPTLNALPVYNRANVPVFWGELSGASHFEPVGSAGDFRGPSTAWFRYHLMDDASAEDTFYGSNCDLCTDNDWDVRRKGIN
3. unnamed (protein) MKAPLFKLAAFTLGVSLSSVALATNPGGGGAGSNPDTGTGFPGVSSFSADGSFATTSGSAGLSCTVFRPSTLGANGLKHPIIVWGNGTTASPSTYSGILEHWASHGFVVIAANTSNAGTGQDMLNCVDYLTTQNNRSTGTYANKLDLNRIGAAGHSQGGGGTIMAGQDYRIKVTAPFQPWTIGLGHNSSSQSNQNGPMFLMTGSADTIASPTLHALPFYNRANVPVFWGELSGASHFEPVGSAGDFRGPSTAWFRYHLMDDASAEDTFYGSNCDLCTDNDWDVRRKGIN
4. unnamed (protein) MKAPLFKLAAFTLGVSLSSVALATNPGGGGAGSNPDTGTGFPGVSSFSADGSFATTSGSAGLSCTVFRPSTLGANGLKHPIIVWGNGTTASPSTYSGILEHWASHGFVVIAANTSNAGTGQDMLNCVDYLTTQNNRSTGTYANKLDLNRIGAAGHSQGGGGTIMAGQDYRIKVTAPFQPYTIGLAHNSSSQSNQNGPMFLMTGSADTIASPTLNALPVYNRANVPVFWGELSGASHFEPVGSAGDFRGPSTAWFRYHLMDDASAEDTFYGSNCDLCTDNDWDVRRKGIN
5. unnamed (protein) MKAPLFKLAAFTLGVSLSSVALATNPGGGGAGSNPDTGTGFPGVSSFSADGSFATTSGSAGLSCTVFRPSTLGANGLKHPIIVWGNGTTASPSTYSGILEHWASHGFVVIAANTSNAGTGQDMLNCVDYLTTQNNRSTGTYANKLDLNRIGAAGHSQGGGGTIMAGQDYRIKVTAPFQPYTIGLGHNSSSQSNQNGPMFLMTGSADTIASPTLNALPVYNRANVPVFWGELSGASAFEPVGSAGDFRGPSTAWFRYHLMDDASAEDTFYGSNCDLCTDNDWDVRRKGIN

315 µM
195 µM
85 µM
540 µM
10 µM
